For each record, write down the corresponding IC50.
target: human acetyl-CoA carboxylase 2 (ACC2) (Homo sapiens, UniProt O00763); construct: The cDNA encoding amino acids 144 to 2458 of human acetyl-CoA carboxylase 2; assay: Acetyl-CoA carboxylase enzyme assay (malonyl-CoA formation by LC/MS/MS); details: recombinant human ACC2 (amino acids 144 to 2458), 50 μM acetyl-CoA, 120 μM ATP, 2 mM KHCO3
Sequence (O00763 144-2458): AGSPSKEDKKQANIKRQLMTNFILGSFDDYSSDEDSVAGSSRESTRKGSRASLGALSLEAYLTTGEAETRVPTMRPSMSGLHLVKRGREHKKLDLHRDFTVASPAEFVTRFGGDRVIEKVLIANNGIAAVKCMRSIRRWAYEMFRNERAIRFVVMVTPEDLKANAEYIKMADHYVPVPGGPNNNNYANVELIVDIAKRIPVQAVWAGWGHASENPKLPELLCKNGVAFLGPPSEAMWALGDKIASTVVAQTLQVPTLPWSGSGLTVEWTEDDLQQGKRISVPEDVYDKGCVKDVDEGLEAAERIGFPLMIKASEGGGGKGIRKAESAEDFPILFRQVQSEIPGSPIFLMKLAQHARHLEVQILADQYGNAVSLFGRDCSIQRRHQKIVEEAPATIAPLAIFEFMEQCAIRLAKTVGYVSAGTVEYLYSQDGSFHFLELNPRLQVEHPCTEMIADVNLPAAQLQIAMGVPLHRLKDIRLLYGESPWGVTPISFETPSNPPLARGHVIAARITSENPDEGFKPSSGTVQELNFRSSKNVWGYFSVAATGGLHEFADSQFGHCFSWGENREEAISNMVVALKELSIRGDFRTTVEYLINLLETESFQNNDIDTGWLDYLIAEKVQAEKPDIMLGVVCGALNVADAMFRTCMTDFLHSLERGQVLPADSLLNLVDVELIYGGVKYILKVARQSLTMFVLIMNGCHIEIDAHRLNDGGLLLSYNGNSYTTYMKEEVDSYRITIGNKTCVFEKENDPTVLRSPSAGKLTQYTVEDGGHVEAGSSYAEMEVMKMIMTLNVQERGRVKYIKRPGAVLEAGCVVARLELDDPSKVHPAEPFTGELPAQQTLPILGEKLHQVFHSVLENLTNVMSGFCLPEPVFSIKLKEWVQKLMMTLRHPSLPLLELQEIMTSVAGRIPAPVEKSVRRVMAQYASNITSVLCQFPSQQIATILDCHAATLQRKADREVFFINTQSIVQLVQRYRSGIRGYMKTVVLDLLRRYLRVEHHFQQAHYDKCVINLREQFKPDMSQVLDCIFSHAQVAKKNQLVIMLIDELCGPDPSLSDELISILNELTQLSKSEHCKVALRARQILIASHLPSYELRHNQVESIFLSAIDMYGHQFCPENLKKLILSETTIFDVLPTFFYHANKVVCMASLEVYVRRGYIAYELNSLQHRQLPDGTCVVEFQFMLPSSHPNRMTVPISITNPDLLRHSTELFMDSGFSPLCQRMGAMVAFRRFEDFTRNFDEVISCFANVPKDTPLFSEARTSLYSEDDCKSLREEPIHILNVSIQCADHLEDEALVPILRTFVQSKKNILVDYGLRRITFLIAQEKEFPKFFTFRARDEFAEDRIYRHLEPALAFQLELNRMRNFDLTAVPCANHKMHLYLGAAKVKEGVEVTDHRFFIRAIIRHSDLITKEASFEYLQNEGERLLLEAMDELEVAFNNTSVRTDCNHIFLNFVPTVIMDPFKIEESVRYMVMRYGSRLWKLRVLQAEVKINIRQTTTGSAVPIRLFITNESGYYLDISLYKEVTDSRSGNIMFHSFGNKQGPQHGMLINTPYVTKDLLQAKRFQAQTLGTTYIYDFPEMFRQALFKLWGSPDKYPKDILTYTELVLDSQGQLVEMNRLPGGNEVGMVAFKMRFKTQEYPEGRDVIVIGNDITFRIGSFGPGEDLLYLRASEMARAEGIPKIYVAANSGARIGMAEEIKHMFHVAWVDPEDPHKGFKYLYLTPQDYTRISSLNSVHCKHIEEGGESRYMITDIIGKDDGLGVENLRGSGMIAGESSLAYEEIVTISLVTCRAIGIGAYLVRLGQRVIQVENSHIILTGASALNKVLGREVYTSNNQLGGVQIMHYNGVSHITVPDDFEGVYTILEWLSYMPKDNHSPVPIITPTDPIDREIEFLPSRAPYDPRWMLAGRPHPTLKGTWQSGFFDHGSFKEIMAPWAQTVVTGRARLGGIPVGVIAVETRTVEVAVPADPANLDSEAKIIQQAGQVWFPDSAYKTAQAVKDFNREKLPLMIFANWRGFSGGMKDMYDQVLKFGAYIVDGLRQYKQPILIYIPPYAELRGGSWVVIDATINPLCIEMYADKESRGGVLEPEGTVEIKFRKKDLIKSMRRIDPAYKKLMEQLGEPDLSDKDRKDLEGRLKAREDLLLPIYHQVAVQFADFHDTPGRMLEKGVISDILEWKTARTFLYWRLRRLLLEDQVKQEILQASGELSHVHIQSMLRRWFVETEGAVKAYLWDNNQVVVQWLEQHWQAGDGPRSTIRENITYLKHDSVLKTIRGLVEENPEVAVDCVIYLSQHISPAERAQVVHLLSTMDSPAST
Could you kindly put the unit after your number?

Q: Which IC50 value is on record for `C[C@H](O)[C@@H](NC(=O)[C@H]1CC[C@H](NS(=O)(=O)c2ccc(C(F)(F)F)cc2)CC1)c1ccccc1` ?
Result: 90 nM

Q: Endpoint output: IC50 of `C[C@@H](NC(=O)[C@H]1CC[C@H](NS(=O)(=O)c2ccc(-c3ccc(CN4CCOCC4)cc3)cc2)CC1)c1ccc(F)cc1` . Value?
Result: 52 nM

Q: # lookup: IC50 of `CC(C)(O)[C@@H](NC(=O)[C@H]1CC[C@H](NS(=O)(=O)c2ccc(C(F)(F)F)cc2)CC1)c1ccccc1`
Result: 25 nM

Q: Fill blank: measured IC50 of the compound `Cc1[nH]cnc1-c1ccc(S(=O)(=O)N[C@H]2CC[C@H](C(=O)N[C@H](C)c3ccc(F)cc3)CC2)cc1` is ____.
Result: 25 nM

Q: Given `C[C@@H](NC(=O)[C@H]1CC[C@H](NS(=O)(=O)c2ccc(-c3ccc(CCN)cc3)cc2)CC1)c1ccc(F)cc1` , state its recorded IC50.
Result: 10 nM

Q: Tell me the measured IC50 of O=C(O)CCc1ccc(-c2ccc(S(=O)(=O)N[C@H]3CC[C@H](C(=O)N4CCN(c5ccccn5)CC4c4ccccc4)CC3)cc2)cc1 (some centres unmarked) , please.
Result: 10 nM

Q: What does the record list as IC50 for `O=C(O)CCc1ccc(-c2ccc(S(=O)(=O)N[C@H]3CC[C@H](C(=O)N4CCC[C@@H]4c4ccc(F)cc4)CC3)cc2)cc1` ?
Result: 90 nM

Q: Entry `O=C(N[C@@H](c1ccccc1)C(F)(F)F)[C@H]1CC[C@H](NS(=O)(=O)c2ccc(C(F)(F)F)cc2)CC1` has what IC50?
Result: 94 nM
